# study-target: Plasma kallikrein (Homo sapiens, UniProt P03952)
# Sequence (P03952 20-390 limits assumed): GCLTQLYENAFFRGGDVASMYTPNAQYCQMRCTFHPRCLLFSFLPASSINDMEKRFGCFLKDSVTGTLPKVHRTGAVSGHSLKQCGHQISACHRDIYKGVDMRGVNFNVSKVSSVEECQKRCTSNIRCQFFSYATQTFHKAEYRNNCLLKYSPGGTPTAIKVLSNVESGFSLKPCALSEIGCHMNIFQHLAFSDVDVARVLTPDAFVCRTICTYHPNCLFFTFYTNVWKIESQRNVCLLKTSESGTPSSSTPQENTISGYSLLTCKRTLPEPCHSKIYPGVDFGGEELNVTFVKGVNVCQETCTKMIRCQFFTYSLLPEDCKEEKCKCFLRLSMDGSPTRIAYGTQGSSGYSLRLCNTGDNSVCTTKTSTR
# Sequence (P03952 391-638 limits assumed): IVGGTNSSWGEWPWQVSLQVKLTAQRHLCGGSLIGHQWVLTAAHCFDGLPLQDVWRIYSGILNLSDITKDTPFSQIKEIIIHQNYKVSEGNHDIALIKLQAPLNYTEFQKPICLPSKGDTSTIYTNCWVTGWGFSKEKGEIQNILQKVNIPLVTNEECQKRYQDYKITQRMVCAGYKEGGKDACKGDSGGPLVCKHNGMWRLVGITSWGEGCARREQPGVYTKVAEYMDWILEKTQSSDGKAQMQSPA
# run-description: Kallikrein Assay
assay-endpoint: pIC50
Friendly reminder that pIC50 comes from taking -log10 of the concentration in mol/L.

response.value for COc1cc([C@@H](CC2CC2)C(=O)Nc2ccc(C(=O)O)cc2)[n+]([O-])cc1-c1c(C(F)F)ccc(Cl)c1F [US10143681, Example 69] (field: pIC50) = 7.38

Measured values drawn from BindingDB's records for patent US10143681 for this set.
